- Tested on: PXR:RXRa (NR concentration 270 nM, RXRa partner concentration 90 nM)
- PROTOCOL_DETAILS: PBM binding z-score (relative to random genomic background probes); higher = stronger binding; sequences stand for … in GC…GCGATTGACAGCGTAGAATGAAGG
Binary classification by PBM binding z-score, with 1 as an inclusive lower bound for Met; all other cases are Not met.

>>> print(df.to_string())
                      sequence_content  category
 0  CCTTACGGGTCACTGACAGGTTATGGCATTTGGA       Met
 1  GGTACGAGGGCAAGTTGATAGCAGAGTTTGATGG       Met
 2  TCTGCTAGGTCAGTTGGTCAGTTAACGAGCTGCC   Not met
 3  ATACCAAGGTGATCGTGGGGTCGTTGATACTAAC       Met
 4  TCTAGTTGGTCACGGAGGTCATACACGACGGGTA       Met
 5  TCTTGTAGCTCAAAGGTTAAGAAAGCCGAAGCCT       Met
 6  CCTACTGGGCTAAAGGTCATTGATTCCAATGCTC       Met
 7  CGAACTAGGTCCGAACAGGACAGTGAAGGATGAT   Not met
 8  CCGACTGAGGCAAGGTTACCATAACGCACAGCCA   Not met
 9  TCAGACAGGTGAAGGCAACTCAGGTACGCAGTCG   Not met
10  CCTGCTAGGTCAACGGTCAGCTAAAGCAGCTCGC       Met
11  CCGACTGGGTCATAAGGTTACCATAAGCCAGCCC       Met
